Entry source: ChEMBL document CHEMBL4138105

Tested on: Escherichia coli
protocol: Antibacterial activity against Escherichia coli KCTC 1682 in presence of 6 uM NH4Cl after 24 hrs
Assay type: functional
assay_context: KCTC 1682, 24 h
Could you please report measured MIC for the items listed next?
Number only, in µM; omit the unit.

The recorded MIC with Escherichia coli for `CC[C@H](C)[C@H](NC(=O)[C@H](CCCNC(=N)N)NC(=O)[C@@H](N)CCCCN)C(=O)N[C@H](C(=O)N[C@@H](CCCCN)C(=O)N[C@@H](CC(C)C)C(=O)N[C@H](CC(C)C)C(=O)N[C@@H](CC(C)C)C(=O)N[C@@H](CCCCN)C(=O)N[C@@H](Cc1c[nH]c2ccccc12)C(=O)N[C@@H](CC(C)C)C(=O)N[C@@H](CCCNC(=N)N)C(N)=O)C(C)C` was 4

Form: item `CC[C@H](C)[C@H](NC(=O)[C@H](CCCNC(=N)N)NC(=O)[C@@H](N)CCCCN)C(=O)N[C@H](C(=O)N[C@@H](CCCCN)C(=O)N[C@H](CC(C)C)C(=O)N[C@H](C(=O)N[C@@H](CC(C)C)C(=O)N[C@@H](CCCCN)C(=O)N[C@@H](Cc1c[nH]c2ccccc12)C(=O)N[C@@H](CC(C)C)C(=O)N[C@@H](CCCNC(=N)N)C(N)=O)[C@@H](C)CC)C(C)C` ; test system Escherichia coli; MIC: 4

`CC[C@H](C)[C@H](NC(=O)[C@H](CC(C)C)NC(=O)[C@@H](CCCCN)NC(=O)[C@@H](NC(=O)[C@@H](NC(=O)[C@H](CCCNC(=N)N)NC(=O)[C@@H](N)CCCCN)[C@@H](C)CC)C(C)C)C(=O)N[C@@H](CC(C)C)C(=O)N[C@@H](CCCCN)C(=O)N[C@@H](Cc1c[nH]c2ccccc12)C(=O)N[C@@H](CC(C)C)C(=O)N[C@@H](CCCNC(=N)N)C(N)=O` on Escherichia coli gives MIC = 4

Record `CC[C@H](C)[C@H](NC(=O)[C@H](CC(C)C)NC(=O)[C@H](CCCCN)NC(=O)[C@@H](NC(=O)[C@@H](NC(=O)[C@H](CCCNC(=N)N)NC(=O)[C@@H](N)CCCCN)[C@@H](C)CC)C(C)C)C(=O)N[C@@H](CC(C)C)C(=O)N[C@@H](CCCCN)C(=O)N[C@@H](Cc1c[nH]c2ccccc12)C(=O)N[C@@H](CC(C)C)C(=O)N[C@@H](CCCNC(=N)N)C(N)=O` has Escherichia coli MIC equal to 8

###

Test system: Escherichia coli
protocol: Antibacterial activity against Escherichia coli KCTC 1682 in presence of 150 mM NaCl after 24 hrs
Assay type: functional
assay_context: KCTC 1682, 24 h
metric_name: MIC (µM)
Express your answer in µM, writing the number without its unit.

Documented MIC of `CC[C@H](C)[C@H](NC(=O)[C@H](CCCNC(=N)N)NC(=O)[C@@H](N)CCCCN)C(=O)N[C@H](C(=O)N[C@@H](CCCCN)C(=O)N[C@@H](CC(C)C)C(=O)N[C@H](CC(C)C)C(=O)N[C@@H](CC(C)C)C(=O)N[C@@H](CCCCN)C(=O)N[C@@H](Cc1c[nH]c2ccccc12)C(=O)N[C@@H](CC(C)C)C(=O)N[C@@H](CCCNC(=N)N)C(N)=O)C(C)C` : 4
